B1: LINE1-full (parent)
chain: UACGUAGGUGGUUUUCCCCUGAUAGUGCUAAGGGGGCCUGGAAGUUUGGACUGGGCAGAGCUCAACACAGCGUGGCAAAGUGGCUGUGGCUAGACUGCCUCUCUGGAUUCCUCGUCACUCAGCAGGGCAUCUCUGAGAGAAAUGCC

Variants of: B1
Experiment: self-cleavage, relative activity (ratio to wild type); higher = more cleavage; in vitro, sequencing; the parent is a self-cleaving ribozyme
quantity: self-cleavage
No unit in the answer, please; the number alone is enough.

Worked cases, answers included:
-- ask Give the measured self-cleavage of C19U A57U .
-- reply 0.13

-- ask Given the entry U1C U23C , report its measured self-cleavage.
-- reply 0.98

-- ask Recorded self-cleavage for U52A A117G , please?
-- reply 1.43

-- ask Would you kindly share the measured self-cleavage for C3A U9C ?
-- reply 1.11

***
-- ask Look up self-cleavage: G4A U102C
-- reply 0.82

-- ask Reported self-cleavage for A78G G106U : what is it?
-- reply 0.66

-- ask # input variant: G21U U73C ; wanted: its self-cleavage
-- reply 2.04
